assayComment: qHTS Assay for Spectroscopic Profiling in 4-MU Spectral Region
settings: compound autofluorescence, 340/450 nm, 4-MU equivalents
Screen size: about 59,000 compounds; about 6,200 (11%) were called active. Another 9% or so got no clear call; they are omitted. Cut-off read from the data, not from the text of the source: active = max dye-equivalent concentration above about 10 nM; inconclusive = mostly about 1.1 nM to 9.6 nM; inactive = weaker than that. Only a selection was taken, and actives are over-represented in it overall.
Select the matching outcome among yes (1) = active, no (0) = inactive

Ask: // return assay outcome for O=C(Nc1c2c(nn1-c1ccc(F)cc1)CS(=O)C2)C12CC3CC(CC(C3)C1)C2 (stereo unspecified)
Reply: no (0)

Ask: // return assay outcome for CCCCOc1ccc(-c2ncc(C(=O)OCC)c(N)n2)cc1
Reply: no (0)

Ask: // return assay outcome for CSc1ccc(-c2c(C#N)c(N)nc3c2c(C)nn3-c2ccccc2)cc1
Reply: yes (1)

Ask: // return assay outcome for Cc1ccc2cccc(O)c2[n+]1[O-]
Reply: yes (1)

Ask: // return assay outcome for CCC(=O)Nc1cccc(NC(=O)c2cccnc2)c1
Reply: no (0)

Ask: // return assay outcome for COc1ccc2nc(N3CCCC(O)C3)c(C#N)cc2c1 (stereo unspecified)
Reply: yes (1)

Ask: // return assay outcome for Cc1ccc(-n2nc(-c3ccco3)cc2C(=O)NCc2cccnc2)cc1
Reply: no (0)

Ask: // return assay outcome for COCCn1c(=O)[nH]c2cc(C(=O)NCc3cccnc3)ccc2c1=O
Reply: yes (1)

Ask: // return assay outcome for CC(C)(C)c1cc(C(=O)NCc2cccnc2)ccn1
Reply: no (0)

Ask: // return assay outcome for Cc1cccn2c(=O)c3cc(C(=O)N4COCC4(C)C)n(C)c3nc12
Reply: yes (1)

Ask: // return assay outcome for Cc1cc(NC(=O)CCC(=O)N(c2cccc(F)c2)C(C(=O)NC2CCCC2)c2ccncc2)no1 (stereo unspecified)
Reply: no (0)

Ask: // return assay outcome for Cc1cc2nc(-c3ccc(NC(=O)c4cccnc4)cc3)oc2cc1C
Reply: yes (1)

Ask: // return assay outcome for COCC(=O)N1CCC2(CCCN(c3ccccc3)C2)CC1
Reply: no (0)

Ask: // return assay outcome for Cc1cccc(Cn2c(SCCO)nc3c2c(=O)n(C)c(=O)n3C)c1
Reply: no (0)

Ask: // return assay outcome for CCc1nnc(NC(=O)c2nc3nccc(C)n3n2)s1
Reply: no (0)

Ask: // return assay outcome for N=c1c2c3c(sc2ncn1CCCN1CCOCC1)CCCCC3
Reply: no (0)

Ask: // return assay outcome for Cc1nc(NCc2ccccc2)c(C(N)=O)c2c1COC(C)(C)C2
Reply: yes (1)

Ask: // return assay outcome for CS(=O)(=O)N1CCC2(CC1)CN(Cc1cc(C(F)(F)F)cc(C(F)(F)F)c1)C2
Reply: no (0)

Ask: // return assay outcome for CCC(C(=O)N1CCOCC1)n1c(C(=O)OC)cc2occc21 (stereo unspecified)
Reply: no (0)

Ask: // return assay outcome for N#Cc1cccc(NC(=O)CCC2CCCC2)c1
Reply: no (0)

Ask: // return assay outcome for CC[C@]1(O)C[C@@H]2CN(CCc3c([nH]c4ccccc34)[C@@](C(=O)OC)(c3cc4c(cc3OC)N(C)[C@H]3[C@@](O)(C(=O)OC)[C@H](OC(C)=O)[C@]5(CC)C=CCN6CC[C@]43[C@@H]65)C2)C1
Reply: yes (1)

Ask: // return assay outcome for O=C(Nc1cccc(NC(=O)N2CCN(c3ccccc3)CC2)c1)N1CCN(c2ccccc2)CC1
Reply: no (0)

Ask: // return assay outcome for O=C(CSc1n[nH]c(-c2cccnc2)n1)Nc1ccnc2ccccc12
Reply: no (0)

Ask: // return assay outcome for Cc1ccc(S(=O)(=O)c2c(N)n(C)c3nc4ccccc4nc23)cc1
Reply: yes (1)

Ask: // return assay outcome for Cc1ccccc1-n1c(SCC(=O)NCc2cccs2)nnc1-c1ccncc1
Reply: no (0)

Ask: // return assay outcome for CC1CCCCC1NC(=O)CSc1nnc(N)s1 (stereo unspecified)
Reply: no (0)
